# ASSAY REMARKS: Pharmacokinetic test in male SD rats, intravenous and intragastric administration, plasma LC-MS/MS
# Type: in vivo
# CONDITION SUMMARY: rat, po, intragastric administration, dose 4.92 (1A), 4.2 (3A), 4.59 (8A) mg/kg, read-out: Curve area (0-inf) AUC0-inf

# COMPOUND, READING UNIT, AUC(0-inf)
records = [
    ("N#Cc1ncc(N2CC3CC3C2C(O)C(F)(F)F)cc1C(F)(F)F (single isomer, unassigned) [Compound 8A]", "µM·h", 12.9),
]

---

# TEST TARGET: androgen receptor (AR) (Homo sapiens)
# Sequence (P10275 whole entry): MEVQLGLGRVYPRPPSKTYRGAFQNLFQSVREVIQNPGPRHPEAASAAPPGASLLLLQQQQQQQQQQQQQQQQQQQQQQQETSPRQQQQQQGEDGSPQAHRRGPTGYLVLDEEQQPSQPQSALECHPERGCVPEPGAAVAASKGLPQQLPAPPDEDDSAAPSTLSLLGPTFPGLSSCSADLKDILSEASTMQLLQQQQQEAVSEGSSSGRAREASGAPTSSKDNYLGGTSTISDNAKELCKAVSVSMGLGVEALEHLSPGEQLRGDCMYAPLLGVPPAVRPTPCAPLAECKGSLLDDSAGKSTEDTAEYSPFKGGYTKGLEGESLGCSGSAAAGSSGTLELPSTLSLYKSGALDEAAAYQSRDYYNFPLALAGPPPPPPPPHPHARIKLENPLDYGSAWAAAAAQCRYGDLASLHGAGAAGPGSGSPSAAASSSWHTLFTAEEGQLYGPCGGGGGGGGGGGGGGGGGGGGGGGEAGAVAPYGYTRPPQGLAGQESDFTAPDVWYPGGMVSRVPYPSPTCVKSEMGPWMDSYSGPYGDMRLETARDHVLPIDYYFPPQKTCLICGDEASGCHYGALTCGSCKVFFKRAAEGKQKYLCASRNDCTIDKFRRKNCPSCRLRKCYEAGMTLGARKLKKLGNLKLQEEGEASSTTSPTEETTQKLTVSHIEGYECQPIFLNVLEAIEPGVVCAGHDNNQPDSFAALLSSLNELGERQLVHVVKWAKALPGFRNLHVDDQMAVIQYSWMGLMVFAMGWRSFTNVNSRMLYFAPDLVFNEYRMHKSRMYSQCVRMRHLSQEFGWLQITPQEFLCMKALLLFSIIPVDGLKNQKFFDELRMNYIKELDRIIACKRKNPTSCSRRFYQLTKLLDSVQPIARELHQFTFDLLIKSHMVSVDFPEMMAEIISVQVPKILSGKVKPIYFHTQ
# ASSAY REMARKS: Agonistic effect of test compounds on androgen receptor (AR), LiveBLAzer FRET reporter cell assay
# Type: cell-based
pEC50: −log10 of the molar value.
Rule: Criterion met for pEC50 not less than 9, Criterion not met for anything less.

# COMPOUND, CATEGORY
records = [
    ("N#Cc1c(F)cc(N2CC3CC3C2C(O)C(F)(F)F)cc1C(F)(F)F (single isomer, unassigned)", "Criterion met"),
    ("N#Cc1ccc(N2C[C@@H]3COC[C@@H]3[C@H]2C(O)C(F)(F)F)cc1C(F)(F)F (single isomer, unassigned) [Compound 14A]", "Criterion met"),
    ("N#Cc1c(F)cc(N2CC3CC3C2C(O)C(F)(F)F)cc1Cl (single isomer, unassigned)", "Criterion met"),
    ("N#Cc1ccc(N2CC3CC3C2C(O)C(F)(F)F)cc1C(F)F (stereo not drawn) [Mixture of compounds 2A and 2B]", "Criterion not met"),
]

---

# ASSAY REMARKS: Pharmacokinetic test in male SD rats, intravenous and intragastric administration, plasma LC-MS/MS
# Type: in vivo
# CONDITION SUMMARY: rat, intravenous administration, dose 1.1 (1A), 0.69 (3A), 0.716 (8A) mg/kg, read-out: Half-life T1/2 (converted)

# COMPOUND, half-life
records = [
    ("N#Cc1ccc(N2CC3CC3C2C(O)C(F)(F)F)cc1C(F)(F)F (single isomer, unassigned)", "82.2 min"),
    ("N#Cc1ncc(N2CC3CC3C2C(O)C(F)(F)F)cc1C(F)(F)F (single isomer, unassigned)", "251 min"),
    ("N#Cc1ccc(N2CC3CC3C2C(O)C(F)(F)F)cc1Cl (single isomer, unassigned)", "81 min"),
]

---

pIC50: −log10 of the molar value.
The following compounds each carry a recorded pIC50 for UniProtKB P05177.
Sequence (P05177 whole entry): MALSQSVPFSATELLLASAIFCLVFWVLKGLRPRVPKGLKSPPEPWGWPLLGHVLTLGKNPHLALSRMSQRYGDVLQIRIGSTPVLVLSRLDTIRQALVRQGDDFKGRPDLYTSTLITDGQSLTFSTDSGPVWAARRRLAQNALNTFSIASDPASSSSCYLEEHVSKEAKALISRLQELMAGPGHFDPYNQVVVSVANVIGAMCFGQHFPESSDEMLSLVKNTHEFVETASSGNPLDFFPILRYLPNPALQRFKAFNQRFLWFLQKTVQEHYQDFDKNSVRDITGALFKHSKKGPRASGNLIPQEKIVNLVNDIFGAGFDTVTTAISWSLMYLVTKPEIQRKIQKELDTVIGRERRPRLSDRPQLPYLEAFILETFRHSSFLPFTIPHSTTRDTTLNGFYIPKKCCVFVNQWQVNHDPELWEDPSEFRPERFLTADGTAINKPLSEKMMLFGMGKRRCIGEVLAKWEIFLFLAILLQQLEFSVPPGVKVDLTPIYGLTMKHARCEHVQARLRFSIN

# COMPOUND, TEST TARGET, pIC50
data = [
    ("N#Cc1ccc(N2CCC[C@@H]2[C@@H](O)C(F)(F)F)cc1C(F)(F)F [VK5211, reference compound]", "UniProtKB P05177", 5.35),
    ("N#Cc1ccc(N2CC3CC3C2C(O)C(F)(F)F)cc1Cl (single isomer, unassigned)", "UniProtKB P05177", 4.53),
]

---

# ASSAY REMARKS: Pharmacokinetic test in male SD rats, intravenous and intragastric administration, plasma LC-MS/MS
# Format: in vivo
# CONDITION SUMMARY: rat, intravenous administration, dose 1.1 (1A), 0.69 (3A), 0.716 (8A) mg/kg, read-out: Curve area (0-t) AUC0-last

# COMPOUND, AUC(0-t) (nM·h)
rows = [
    ("N#Cc1ccc(N2CC3CC3C2C(O)C(F)(F)F)cc1Cl (single isomer, unassigned)", 1280),
    ("N#Cc1ccc(N2CC3CC3C2C(O)C(F)(F)F)cc1C(F)(F)F (single isomer, unassigned)", 2470),
    ("N#Cc1ncc(N2CC3CC3C2C(O)C(F)(F)F)cc1C(F)(F)F (single isomer, unassigned)", 4780),
]
